Below, each entry is listed alongside its reported Estimated V1a EC50 (calcium flux).
target: human V1a receptor (human, UniProt P37288 1-418); test: cell-based or functional assay
Sequence (P37288 whole entry): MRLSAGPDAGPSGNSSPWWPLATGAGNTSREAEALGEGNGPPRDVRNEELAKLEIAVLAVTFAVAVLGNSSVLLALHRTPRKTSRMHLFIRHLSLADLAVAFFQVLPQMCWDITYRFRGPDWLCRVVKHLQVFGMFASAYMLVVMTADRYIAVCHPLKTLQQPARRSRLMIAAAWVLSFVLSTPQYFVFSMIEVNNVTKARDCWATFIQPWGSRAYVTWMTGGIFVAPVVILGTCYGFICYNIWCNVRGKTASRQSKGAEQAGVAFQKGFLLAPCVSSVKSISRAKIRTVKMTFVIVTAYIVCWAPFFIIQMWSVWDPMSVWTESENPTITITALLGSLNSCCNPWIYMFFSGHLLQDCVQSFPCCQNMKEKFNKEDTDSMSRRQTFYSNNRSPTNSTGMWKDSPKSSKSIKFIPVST

Previously resolved entries follow.
BINDER	Estimated V1a EC50 (calcium flux)
XFXNCPXG (Mpa at position 1, disulfide bond between Mpa and Cys; Hgn at position 4; 12-aminododecanoic acid on the side chain of Lys 8; C-terminal amide) [Mpa-Tyr-Phe-Hgn-Asn-Cys-Pro-Lys(12-aminododecanoic acid)-Gly-NH2 [SEQ ID NO. 19]]	> 10 µM
XFXNCPKG (Mpa (mercaptopropionic acid) at position 1, disulfide bond between Mpa and Cys; Hgn (homoglutamine) at position 4; C-terminal amide) [Mpa-Tyr-Phe-Hgn-Asn-Cys-Pro-Lys-Gly-NH2 [SEQ ID NO. 25]]	0.0052 µM
XFXNCPXG (Mpa at position 1, disulfide bond between Mpa and Cys; Hgn at position 4; (Gly)9-Ac on the side chain of Lys 8; C-terminal amide) [Mpa-Tyr-Phe-Hgn-Asn-Cys-Pro-Lys(X)a-Gly-NH2; (X)a = (Gly)9-Ac [SEQ ID NO. 26]]	> 10 µM
XFXNCPKG (Mpa at position 1, disulfide bond between Mpa and Cys; Hgn at position 4; D-Lys at position 8; C-terminal amide) [Mpa-Tyr-Phe-Hgn-Asn-Cys-Pro-dLys-Gly-NH2 (note: dLys = D-Lys) [SEQ ID NO. 18]]	> 10 µM
XFXNCPXG (Mpa at position 1, disulfide bond between Mpa and Cys; Hgn at position 4; acetyl (Ac) on the side chain of Lys 8; C-terminal amide) [Mpa-Tyr-Phe-Hgn-Asn-Cys-Pro-Lys(X)a-Gly-NH2; (X)a = Ac [SEQ ID NO. 28]]	> 10 µM
XFXNCPXG (Mpa at position 1, disulfide bond between Mpa and Cys; Hgn at position 4; lauric acid on the side chain of Lys 8; C-terminal amide) [Mpa-Tyr-Phe-Hgn-Asn-Cys-Pro-Lys(X)a-Gly-NH2; (X)a = Lauric acid [SEQ ID NO. 27]]	> 10 µM

Q: Given the entry XFXNCPXG (Mpa at position 1, disulfide bond between Mpa and Cys; Hgn at position 4; Dap at position 8; C-terminal amide) [Mpa-Tyr-Phe-Hgn-Asn-Cys-Pro-Dap-Gly-NH2 [SEQ ID NO. 17]] , report its measured Estimated V1a EC50 (calcium flux).
Ans: > 10 µM

Q: Given the entry XFXNCPXG (Mpa at position 1, disulfide bond between Mpa and Cys; Hgn at position 4; Dap on the side chain of Lys 8; C-terminal amide) [Mpa-Tyr-Phe-Hgn-Asn-Cys-Pro-Lys(X)a-Gly-NH2; (X)a = Dap [SEQ ID NO. 29]] , report its measured Estimated V1a EC50 (calcium flux).
Ans: 1.34 µM

Just for reference, patent US20230248800A1 is where these values come from.
